Biological target: T1, Mcl-1, Q07820
T1 chain: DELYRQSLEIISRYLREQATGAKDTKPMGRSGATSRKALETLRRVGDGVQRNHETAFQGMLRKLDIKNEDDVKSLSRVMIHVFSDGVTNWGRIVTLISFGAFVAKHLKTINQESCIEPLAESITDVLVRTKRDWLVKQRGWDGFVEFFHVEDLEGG
Experiment: peptide SPOT array, c-Myc-tagged receptor at 1 uM or 100 nM, anti-c-Myc-Cy3
quantity.name: SPOT signal as a fraction of Bim BH3's signal on the same receptor and array

Consider the following illustrative entries.
RNIASQTVARLKDVARRISSCLDFEQ [HERC2]
0.06
DLDSNQAAMVLIRLSHLLSEKPEDKG [TBRG4]
0.02
GVMTQEVGQLLQDMLDDVYQQYRSLT [HUWE1]
0.02
NKRHRPIGIGDQGLADAFILMRYPFE [RRM1]
0.02

[1] EDLKENLAAGIKQIAEFLGFFLTGEQ [SULT6B1]
[2] QRLINLVGESLRLLGNTFVALSDLRC [BAT3]
Between 1 and 2 , whose measured SPOT signal as a fraction of Bim BH3's signal on the same receptor and array reads higher? Kindly give the label for the entry you pick.
2

This collection of values is drawn from paper PMC4072508.
